This collection of values is drawn from patent US20220306762A1.

# TESTED SYSTEM: His-tagged mouse CD38 (ACRO Biosystems CD8-M5223) (mouse) (UniProt P56528)
# EXPERIMENT NOTES: ELISA, 1 ug/ml scFv-Fc, coated His-tagged CD38
MEASURED ATTRIBUTE: ELISA signal
Could you respond with only the numeric value?

Returns the measured ELISA signal for the input binder. Input: 40769p2.1.E5 scFv-Fc (scFv, part only; not given: Linker, domain order, Fc, V domains shown, not shown: another chain or arm of the molecule; a dimerising Fc or GST; small tags and cut ends) VH: EVQLLESGGGLVQPGGSLRLSCTASAHIFKYNWMSWVRQAPGKGLEWVSSINSDGTITYYTDSVKGRFTISRDNSKNTLYLQMNSLRAEDTAVYYCAKDNWNDYAIDVWGQGTTVTVSS VL: QSVLTQPPSASGTPGQRVTISCSGSRSDIRNNYVSWYQQLPGTAPKLLIYSNGQRPSGVPDRFSGSKSGTSASLAISGLQSEDEADYYCAIWDDSLNAWVFGGGTKLTVL
0.045

Query: ELISA signal; subject: 40769p2.1.C1 scFv-Fc (scFv, part only; not given: Linker, domain order, Fc, V domains shown, not shown: another chain or arm of the molecule; a dimerising Fc or GST; small tags and cut ends) VH: EVQLLESGGGLVQPGGSLRLSCAASGFSFSDYWMNWVRQAPGKGLEWVSTISSGGNMIYYADSVKGRFTISRDNSKNTLYLRMNSLRAEDTAVYYCAKDNWNDYYGMDVWGQGTTVTVSS VL: QSVLTQPPSASGTPGQRVTISCSGSSSNIRDNYVYWYQQVPGTAPKLLIYKDDQRPSGVPDRFSGSKSGSSASLAISGLQSEDEADYYCATWDGSLNARVFGGGTKLTVL
0.048

I am curious: what ELISA signal value has been reported for 40769p2.2.H4 scFv-Fc (scFv, part only; not given: Linker, domain order, Fc, V domains shown, not shown: another chain or arm of the molecule; a dimerising Fc or GST; small tags and cut ends) VH: EVQLLESGGGLVQPGGSLRLSCAASGFDFSSYWMNWVRQAPGKGLEWVSTISSGGSIIYYADSVKGQFTISRDNSKNTLYLQMNSLRAEDTAVYYCAKDNWNDYYGMDVWGQGTTVTVSS VL: QSVPTQPPSASGTPGQRVTISCSGSSSNIRDNYVYWYQQVPGTAPKLLIYKDDQRPSGVPDRFSGSKSGTSASLAISGLQSEDEADYYCATWDGSLNARVFGGGTKLTVL ?
0.045
